- System: MDA-MB-468 breast
- protocol_text: NCI-60 one-dose screen, 48 h
- assay_conditions: 10 µM unless noted
- Experimental: Growth inhibition of the MDA-MB-468 human Breast tumor cell line is measured as a screen for anti-cancer activity. Cells are grown in 96 well plates and exposed to the test compound for 48 hours. Compounds are tested at a single concentration, which is 10^-5 M for most compounds. The reported endpoint is percent growth (GI% or GIPRCNT), where numbers from 0 - 100% represent growth inhibition, and numbers from -100% - 0 represent cell death. […]
About 83,000 compounds went through this panel and 20% of them were active in at least one assay; those are over-represented in the sample as a whole. Activity calls are given as the source filed them. The calls were made as follows: active = growth percent below 10; inactive = the rest.
Parameter call: string, one of active, inactive

Inquiry: Please indicate how the test categorized O=C(CN1CCN(c2cccc(Cl)c2)CC1)N1CCN(c2nnc(-c3ccc(Cl)cc3)c(-c3ccc(Cl)cc3)n2)CC1 .
Reply text: inactive

Inquiry: Please indicate how the test categorized CC(C)C1=C[C@@]23CC[C@@H]4[C@](C)(CCC[C@@]4(C)C(=O)N4CCCNCC4)[C@H]2C[C@@H]1[C@H]1C(=O)CCC(=O)[C@H]13 .
Reply text: inactive

Inquiry: Please indicate how the test categorized CN1C(=O)N(C)C2Nn3c(s/c(=C\c4ccccn4)c3=O)=NC21 (configuration not stated) .
Reply text: inactive

Inquiry: Please indicate how the test categorized CCCCCCCCCCCCCCCC[N+]1(CC)CCCC1 .
Reply text: active

Inquiry: Please indicate how the test categorized CC1OC(OC2C(OC3CCC4(C)C(CCC5(C)C4CC=C4C6CC(C)(C)CCC6(CO)C(O)CC45C)C3(C)C)OC(C(=O)O)C(OC3OC(COC4OC(CO)C(O)C(O)C4O)C(O)C(O)C3O)C2O)C(O)C(O)C1O (configuration not stated) .
Reply text: active

Inquiry: Please indicate how the test categorized CCOc1ccc2c(c1)CC[C@@H]1[C@@H]2CC[C@]2(C)[C@@H](O)[C@@H](O)C[C@@H]12 .
Reply text: inactive

Inquiry: Please indicate how the test categorized COc1ccc(-c2[nH]ncc2-c2cc3c(c(OC)c2)OCC(=O)N3)cc1 .
Reply text: active

These measurements were taken from PubChem BioAssay (NCI).
